# procedure_text: melting temperature; fluorescence melt of hairpins on a sequencing array, two-state fit, raised by 9.35 °C to match UV melts
# measurement_setup: sodium 0.088 M
Tm values by entry
Don't forget the unit after the value.

Illustrative cases are given below, each with its answer.
| macromolecule_sequence | measured |
| --- | --- |
| GCGATGATCGC ((((...)))) | 46 °C |
| GCGCTGCGAAAGCCGGGC ((.(.((....)).).)) | 50.9 °C |
| GCTATGCGAAAGCAGTGC ((..(((....)))..)) | 46.9 °C |

Endpoint output: Tm of GCTCGCACGAAAGTGAGC (((..(((....)))))) . Value?
49.6 °C

Fill in the blank: the reported Tm of GGACCCGAAAGGGCATCC ((((((....)))..))) is ____.
34.2 °C

Returns the measured Tm for the input sequence. Input: GCCTGTGGAAACACGGGC (((.(((....))).)))
61.9 °C

I have this sequence here, GTAATCGAAAGATTCTAC ((((((....)))..))) , and I need its recorded Tm.
28.8 °C

// lookup Tm for GATTCCGAAAGGAATC ((((((....))))))
64.9 °C

====

Listed here are sequences together with their documented folding enthalpy.
# procedure_text: folding enthalpy; higher = less favourable; fluorescence melt of hairpins on a sequencing array, two-state fit
# measurement_setup: sodium 0.088 M
Record the value in kcal/mol, omitting the unit from your answer.

| macromolecule_sequence | folding enthalpy (kcal/mol) |
| --- | --- |
| GCGAGGCGAAAGCCCTGC ((..(((....)))..)) | -11.9 |

Requested field: folding enthalpy. Item: GTATTGAAAAATAC (((((....)))))
-15.3

====

Each item that follows carries a reported Tm.
# procedure_text: melting temperature; fluorescence melt of hairpins on a sequencing array, two-state fit, raised by 9.35 °C to match UV melts
# measurement_setup: sodium 0.088 M
# unit: °C | format: bare number

# annotated cases, reported Tm shown
| macromolecule_sequence | observed_property | measured |
| --- | --- | --- |
| GATGACGGAAACATCATC (((((.(....).))))) | Tm | 34.8 |
| GCTCGCGGAAACGCGAAC (.(((((....))))).) | Tm | 48.9 |
| GATCAAATATTTGATC ((((((....)))))) | Tm | 47.1 |
| GCCATGGGAAACTATGGC (((((.(....).))))) | Tm | 52.5 |
| GATCTTTTAAAAGATC ((((((....)))))) | Tm | 45.9 |
| GCGGCCGAAAGGCATCGC ((((((....)))..))) | Tm | 53.1 |
| GCATGGGGAAACTCATGC (((((.(....).))))) | Tm | 51.9 |
| GCCCCGCGAAAGCGACGC ((..(((....)))..)) | Tm | 31.3 |

Record request: Tm value, item GCGGGATCCCGC ((((....))))
59.3

So what's the measured Tm for this one? GGCTTCGAAAGAACCGCC ((((((....)))..)))
47.4

May I ask what Tm has been recorded for CGACGCGGAAACGCTCG (((.(((....)))))) ?
49.3

Field request: Tm | item: GGGAATACGAAAGTACCC (((..(((....))))))
33.9
